molecular target: UniProt P42336; assay: Inhibition of PI3Kα (ADP-Glo kinase activity assay, ATP to ADP conversion); type: biochemical; details: 25 μM PIP2:PS, 60 μM ATP, 30 min reaction, luminescence
Sequence (P42336 whole entry): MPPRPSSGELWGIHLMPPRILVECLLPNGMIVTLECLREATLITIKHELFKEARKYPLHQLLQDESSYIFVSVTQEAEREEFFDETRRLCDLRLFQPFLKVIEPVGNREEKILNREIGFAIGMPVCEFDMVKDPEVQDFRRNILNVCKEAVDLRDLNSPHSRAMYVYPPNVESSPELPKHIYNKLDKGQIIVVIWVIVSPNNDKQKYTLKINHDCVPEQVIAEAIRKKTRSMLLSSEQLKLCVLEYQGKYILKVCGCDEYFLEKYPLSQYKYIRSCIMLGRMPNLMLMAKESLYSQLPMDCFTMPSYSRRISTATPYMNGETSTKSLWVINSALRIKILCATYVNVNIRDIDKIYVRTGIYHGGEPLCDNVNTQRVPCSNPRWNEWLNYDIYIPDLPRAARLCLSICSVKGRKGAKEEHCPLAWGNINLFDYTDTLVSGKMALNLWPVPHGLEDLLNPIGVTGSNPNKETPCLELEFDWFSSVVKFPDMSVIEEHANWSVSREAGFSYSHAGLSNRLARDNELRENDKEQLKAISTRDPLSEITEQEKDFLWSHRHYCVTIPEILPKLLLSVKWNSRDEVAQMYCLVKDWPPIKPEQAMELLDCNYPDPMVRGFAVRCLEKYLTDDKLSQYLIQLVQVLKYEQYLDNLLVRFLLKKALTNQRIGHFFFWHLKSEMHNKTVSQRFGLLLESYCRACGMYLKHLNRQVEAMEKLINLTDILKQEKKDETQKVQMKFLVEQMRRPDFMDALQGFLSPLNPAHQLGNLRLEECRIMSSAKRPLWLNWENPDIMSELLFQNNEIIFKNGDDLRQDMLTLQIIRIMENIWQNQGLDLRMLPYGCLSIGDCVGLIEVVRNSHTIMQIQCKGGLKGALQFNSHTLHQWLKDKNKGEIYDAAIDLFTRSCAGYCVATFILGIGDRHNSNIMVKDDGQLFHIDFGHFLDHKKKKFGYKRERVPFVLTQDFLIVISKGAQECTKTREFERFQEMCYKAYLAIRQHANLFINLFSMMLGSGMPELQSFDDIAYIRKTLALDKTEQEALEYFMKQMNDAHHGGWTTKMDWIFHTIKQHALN
Sequence (P27986 whole entry partner): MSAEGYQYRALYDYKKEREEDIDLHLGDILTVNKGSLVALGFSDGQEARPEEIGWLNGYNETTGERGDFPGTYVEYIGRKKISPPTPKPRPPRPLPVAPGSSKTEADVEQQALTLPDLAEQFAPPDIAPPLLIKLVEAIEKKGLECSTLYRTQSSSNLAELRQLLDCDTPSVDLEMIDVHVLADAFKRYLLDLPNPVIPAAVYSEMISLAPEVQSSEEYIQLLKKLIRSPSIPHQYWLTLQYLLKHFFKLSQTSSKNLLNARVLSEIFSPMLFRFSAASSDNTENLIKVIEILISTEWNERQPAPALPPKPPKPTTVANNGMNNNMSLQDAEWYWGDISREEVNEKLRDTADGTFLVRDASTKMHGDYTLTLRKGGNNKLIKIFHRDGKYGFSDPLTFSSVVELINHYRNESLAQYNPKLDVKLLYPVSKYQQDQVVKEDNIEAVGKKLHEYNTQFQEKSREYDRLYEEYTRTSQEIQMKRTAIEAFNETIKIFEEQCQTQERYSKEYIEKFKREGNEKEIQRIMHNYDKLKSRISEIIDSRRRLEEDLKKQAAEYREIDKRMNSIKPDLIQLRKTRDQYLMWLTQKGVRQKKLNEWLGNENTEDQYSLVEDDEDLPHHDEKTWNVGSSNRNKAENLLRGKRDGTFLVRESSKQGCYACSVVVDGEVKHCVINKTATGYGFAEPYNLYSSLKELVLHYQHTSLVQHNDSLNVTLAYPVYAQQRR
Give Y when the value for PI3Ka IC50 is at least 800 nM. Give N when it is less.

Known results for compounds:
CC(=O)Nc1ncc(-c2cc(N3CCOCC3)cc(S(=O)(=O)c3ccccc3)c2)cn1    Y
C[C@@H]1CC(S(=O)(=O)c2cc(-c3cnc(N)nc3)cc(N3CCOCC3)c2)C[C@H](C)O1 (stereo partly shown)    Y
Cc1ccccc1Oc1cc(-c2cnc(N)nc2)nc(N2CCOCC2)c1    N
Cc1cn2cc(-c3cc(N4CCOCC4)cc(S(=O)(=O)Cc4ccccc4)c3)cnc2n1    Y
Nc1ncc(-c2cc(N3CCOCC3)cc(S(=O)(=O)c3cccc4c3OCC4)c2)cn1    N
CC(=O)N1CC(S(=O)(=O)c2cc(-c3cnc(N)nc3)cc(N3CCOCC3)c2)C1    N
Nc1ncc(-c2cc(N3CCOCC3)cc(S(=O)(=O)[C@H]3CCOC3)c2)cn1    N
NC(=O)N1CC(S(=O)(=O)c2cc(-c3cnc(N)nc3)cc(N3CCOCC3)c2)C1    N
Nc1cc(F)c(-c2cc(N3CCOCC3)cc(S(=O)(=O)[C@@H]3CCOC3)c2)cn1    N
Cc1cnccc1-c1cc(N2CCOCC2)cc(S(=O)(=O)c2ccccc2)c1    Y

Query: // inclusive: PI3Ka IC50 at least 800 nM? input: `Nc1ncc(-c2cc(N3CCOCC3)cc(S(=O)(=O)C3CN(C(=O)C4CC4)C3)c2)cn1`
Reply: N

Query: // inclusive: PI3Ka IC50 at least 800 nM? input: `COc1ccc(-c2cc(N3CCOCC3)cc(S(=O)(=O)c3ccccc3)c2)cn1`
Reply: Y

Query: // inclusive: PI3Ka IC50 at least 800 nM? input: `N#Cc1ccc(S(=O)(=O)c2cc(-c3cnc(N)nc3C(F)(F)F)cc(N3CCOCC3)c2)cc1`
Reply: Y

Query: // inclusive: PI3Ka IC50 at least 800 nM? input: `COc1nc(N)ccc1-c1cc(N2CCOCC2)cc(S(=O)(=O)Cc2ccc(F)cc2)c1`
Reply: Y

Query: // inclusive: PI3Ka IC50 at least 800 nM? input: `CC(=O)Nc1ncc(-c2cc(S(=O)(=O)c3ccccc3)cc(N3CCOCC3)n2)cn1`
Reply: N

Query: // inclusive: PI3Ka IC50 at least 800 nM? input: `O=S(=O)(Cc1ccccc1)c1cc(-c2cnc(NCCO)nc2)cc(N2CCOCC2)c1`
Reply: Y

Query: // inclusive: PI3Ka IC50 at least 800 nM? input: `Cc1nc(N)ncc1-c1cc(N2CCOCC2)cc(S(=O)(=O)[C@@H]2CCOC2)c1`
Reply: Y

Query: // inclusive: PI3Ka IC50 at least 800 nM? input: `Nc1ncc(-c2cc(S(=O)(=O)c3ccccc3Cl)cc(N3CCOCC3)n2)cn1`
Reply: N

Query: // inclusive: PI3Ka IC50 at least 800 nM? input: `Nc1ncc(-c2cc(N3CCOCC3)cc(S(=O)(=O)Cc3ccc(F)cc3F)c2)cn1`
Reply: N

Query: // inclusive: PI3Ka IC50 at least 800 nM? input: `Nc1ncc(-c2cc(C(=O)C3CCOCC3)cc(N3CCOCC3)n2)cn1`
Reply: N
